Target chain: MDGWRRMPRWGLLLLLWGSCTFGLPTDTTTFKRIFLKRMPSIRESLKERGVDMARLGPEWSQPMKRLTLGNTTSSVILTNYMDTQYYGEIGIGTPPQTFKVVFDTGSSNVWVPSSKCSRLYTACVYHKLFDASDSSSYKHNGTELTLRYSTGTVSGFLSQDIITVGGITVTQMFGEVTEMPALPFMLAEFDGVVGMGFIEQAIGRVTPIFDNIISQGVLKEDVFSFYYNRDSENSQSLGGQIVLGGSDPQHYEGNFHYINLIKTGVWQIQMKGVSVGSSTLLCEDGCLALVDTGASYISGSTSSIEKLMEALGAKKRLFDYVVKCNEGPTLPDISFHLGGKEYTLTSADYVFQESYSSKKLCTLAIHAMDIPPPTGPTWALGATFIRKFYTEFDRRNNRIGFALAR
pKi: −log10 of the molar value. Residues, ends and D or L forms follow the SMILES beside them.
Label y for high-side pKi (at or above 3) and n for low-side pKi (below it).

>  <COMPOUND>
COC(=O)[C@H](Cc1ccccc1)NC(=O)[C@@H](NC(=O)[C@H](CC(C)C)NC(=O)[C@@H](O)C(C)C)C(C)C

>  <CLASSIFICATION>
y

$$$$
>  <COMPOUND>
COC(=O)[C@H](Cc1ccccc1)NC(=O)[C@@H](NC(=O)[C@H](CC(C)C)NC(=O)[C@@H](O)Cc1ccccc1)C(C)C (HELM PEPTIDE1{[O=C([C@@H](O)Cc1ccccc1)[*:2]].L.V.F.[CO[*:1]]}$$$$V2.0)

>  <CLASSIFICATION>
y

$$$$
>  <COMPOUND>
COC(=O)[C@H](Cc1ccccc1)NC(=O)[C@@H](NC(=O)[C@H](CC(C)C)NC(=O)[C@H](O)C(C)C)C(C)C

>  <CLASSIFICATION>
n

$$$$
